Target: beta-adrenergic receptor (Canis lupus familiaris, UniProt P54833)
Construct: endogenous in cells
Sequence (P54833 whole entry): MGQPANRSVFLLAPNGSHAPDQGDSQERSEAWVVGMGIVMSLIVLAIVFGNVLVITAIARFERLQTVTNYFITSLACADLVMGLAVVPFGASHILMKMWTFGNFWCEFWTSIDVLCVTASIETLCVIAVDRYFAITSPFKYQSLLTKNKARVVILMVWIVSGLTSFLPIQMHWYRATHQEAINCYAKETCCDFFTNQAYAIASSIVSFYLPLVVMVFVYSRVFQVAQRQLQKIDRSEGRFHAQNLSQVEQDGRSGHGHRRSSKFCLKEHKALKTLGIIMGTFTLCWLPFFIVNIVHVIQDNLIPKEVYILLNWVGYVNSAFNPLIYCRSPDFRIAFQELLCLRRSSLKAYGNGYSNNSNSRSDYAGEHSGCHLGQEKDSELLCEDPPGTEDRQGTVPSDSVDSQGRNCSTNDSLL
Experiment: Beta agonist activity, anion secretion short circuit current in airway epithelial monolayers in Ussing chambers
Text: To assess beta agonist activity the compounds of the present invention involves the determination of lumenal drug addition to promote airway epithelial anion currents measured under short circuit current (ISC) using airway epithelial monolayers mounted in Ussing chambers. […] All test drug additions are to the lumenal bath with approximately half-log dose additions (from 8×10^−10 M to 6.5×10^−5 M), and the cumulative change in ISC (excitation) recorded. […]
pEC50: −log10 of the molar value.
endpoint name: pEC50

a: N=C(NCCCCc1ccc(CCCCNC[C@H](O)c2ccc(O)c(NC=O)c2)cc1)NC(=O)c1nc(Cl)c(N)nc1N [Compound 12]
b: CS(=O)(=O)Nc1cc([C@@H](O)CNCCCCc2ccc(CCCCNC(=N)NC(=O)c3nc(Cl)c(N)nc3N)cc2)ccc1O [Compound 40]
c: C[C@H](CCCc1ccc(CCCCNC(=N)NC(=O)c2nc(Cl)c(N)nc2N)cc1)NC[C@H](O)c1ccc(O)c(NC=O)c1 [Compound 30]
Q: Sort these compounds on pEC50 so the largest reading comes first. A complete answer lists every label in the requested sequence.
Result: c, a, b
